The origin of these recorded values is PubChem BioAssay AID1347426.

# protocol_summary: Novel Modifiers of Survival Motor Neuron (SMN) Protein: Gene Identification via Genome-wide siRNA Screen;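 also: luminescence tracks full-length SMN protein made from the SMN2 reporter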
# condition_set: HEK293T SMN2-luciferase reporter, siRNA knockdown, 72 h; actives lie on both sides
# Description: Spinal muscular atrophy (SMA) is the most common neuromuscular autosomal recessive disorder and one of the leading genetic causes of infant death. […] Briefly, 1 pmol of each siRNA was spotted to a well of a 384-well plate (Corning, Corning, NY) and 20 microL of serum-free DMEM containing […] of Lipofectamine RNAiMax (Life Technologies, Carlsbad, CA) was then added to each well. […] Raw luminescence reads were normalized to Ambion(R) Silencer(R) Negative Control #2 siRNA, then log10 transformed. […]
Hit rate of the full screen: of about 31,000 sequences, about 1,400 (4.5%) were called active. This is one part of a sample in which actives are shown more often than they occur.
Documented median seed-adjusted z-score across a set of sequences
Please give only the number in your answer, with no unit.

Example cases with answers are listed next.
Exam item: Please supply the value of reported median seed-adjusted z-score for the item GGGUCAUUCUAUGGGCAAATT against OGFOD2
Marked response: 0.493

Exam item: Specify reported median seed-adjusted z-score for the sequence shown: GGAGUAACCUGGAUGAGGATT against C3
Marked response: 0.0281

Exam item: Query median seed-adjusted z-score for CAAUAGGAUUGGUCACCAATT against PNPT1
Marked response: 0.0729

Others:
Exam item: # return recorded median seed-adjusted z-score for input GGAAUCGUGGAGAAUAUGATT against NUBP2
Marked response: -0.21

Exam item: Return reported median seed-adjusted z-score. Input sequence: CGACCGUGGUGACAUGAUUTT against LRP3
Marked response: -1.05

Exam item: Given GAUUGCAUAUUACAAACGATT against GIN1 , respond with its median seed-adjusted z-score.
Marked response: -0.0585
